Give measured total protein half-life in vivo for each item. Keep answers brief.
# Method Summary: total protein half-life in vivo (active degradation + dilution); higher = more stable protein
# Experimental Setup: E. coli NCM3722 delta-lon; growth: N-lim chemostat; doubling time 6 h
Give just the numeric value; h need not be written.

Problem: Which measured total protein half-life in vivo value corresponds to "MAQLYFYYSAMNAGKSTALLQSSYNYQERGMRTVVYTAEIDDRFGAGKVSSRIGLSSPAKLFNQNSSLFDEIRAEHEQQAIHCVLVDECQFLTRQQVYELSEVVDQLDIPVLCYGLRTDFRGELFIGSQYLLAWSDKLVELKTICFCGRKASMVLRLDQAGRPYNEGEQVVIGGNERYVSVCRKHYKEALQVDSLTAIQERHRHD" ?
Solution: 5.17

Problem: Which measured total protein half-life in vivo value corresponds to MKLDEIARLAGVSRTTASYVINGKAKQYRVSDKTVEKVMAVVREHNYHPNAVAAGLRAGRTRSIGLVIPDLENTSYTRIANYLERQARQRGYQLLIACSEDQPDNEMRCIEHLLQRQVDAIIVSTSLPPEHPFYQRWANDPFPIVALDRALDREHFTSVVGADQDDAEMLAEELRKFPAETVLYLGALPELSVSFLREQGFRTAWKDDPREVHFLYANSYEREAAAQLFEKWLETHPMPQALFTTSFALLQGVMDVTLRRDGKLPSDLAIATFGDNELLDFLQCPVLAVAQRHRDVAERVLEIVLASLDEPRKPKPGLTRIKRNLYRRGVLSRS [P0ACP1] ?
Solution: 5.87

Problem: Which measured total protein half-life in vivo value corresponds to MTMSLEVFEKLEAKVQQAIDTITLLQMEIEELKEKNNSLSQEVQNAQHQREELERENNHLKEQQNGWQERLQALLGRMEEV [P0AF36] ?
Solution: 4.06
